Measured CC50 at 120 h, listed per entry for reference.
Experiment: Cytotoxicity in uninfected MT4 cells (MTT)
Format: cell-based
Settings: human, 5 days, n=four duplicate determinations, read-out: CTC50 (50% cytotoxicity concentration)
Output spec: scalar in µM, unitless text.

Some entries whose results are on file:
• Cc1cc2ncoc2c(C)c1OCC(=O)N[C@@H](Cc1ccccc1)C[C@H](O)[C@H](Cc1ccccc1)NC(=O)O[C@H]1CO[C@H]2OCC[C@H]21 = 29.8
• Cc1cccc(C)c1OCC(=O)N[C@@H](Cc1ccccc1)[C@@H](O)C[C@H](Cc1ccccc1)NC(=O)O[C@@H]1CCS(=O)(=O)C1(C)C = 18.3

Shift focus to the following entry.
For record `Cc1ccc(O)c(C)c1OCC(=O)N[C@@H](Cc1ccccc1)C[C@H](O)[C@H](Cc1ccccc1)NC(=O)O[C@H]1CO[C@H]2OCC[C@H]21` the listed CC50 at 120 h is 50.5

The origin of these recorded values is patent US5905068A.
